# Tested on: Plasma
# assay.info: Anticoagulant activity in rabbit platelet poor plasma assessed as fibrinogen level at 100 uM incubated for 3 mins by coagulometric analysis (reference value: 14.24 +/- 0.67 g/l)
# Assay type: functional, Oryctolagus cuniculus
assay.readout: Fibrinogen level (g/L)

- compound: "Cc1nc(C)c(COC(=O)N[C@H](CC(C)C)C(=O)Oc2ccc(-c3cc(=O)c4c(O)c(O)c(O)cc4o3)cc2)nc1C"
  tgt: "Plasma"
  assay.readout: "Fibrinogen level"
  reported.measurement: 2.47
- compound: "Cc1nc(C)c(C(=O)NCC(=O)Oc2ccc(-c3cc(=O)c4c(O)c(O)c(O)cc4o3)cc2)nc1C"
  tgt: "Plasma"
  assay.readout: "Fibrinogen level"
  reported.measurement: 3.12
- compound: "CC[C@H](C)[C@@H](NC(=O)OCc1nc(C)c(C)nc1C)C(=O)Oc1ccc(-c2cc(=O)c3c(O)c(O)c(O)cc3o2)cc1"
  tgt: "Plasma"
  assay.readout: "Fibrinogen level"
  reported.measurement: 2.54
- compound: "Cc1nc(C)c(COC(=O)N[C@H](C)C(=O)Oc2ccc(-c3cc(=O)c4c(O)c(O)c(O)cc4o3)cc2)nc1C"
  tgt: "Plasma"
  assay.readout: "Fibrinogen level"
  reported.measurement: 2.68
- compound: "Cc1nc(C)c(C)nc1C [LIGUSTRAZINE]"
  tgt: "Plasma"
  assay.readout: "Fibrinogen level"
  reported.measurement: 3.28
- compound: "O=c1cc(-c2ccc(O)cc2)oc2cc(O)c(O)c(O)c12 [SCUTELLAREIN]"
  tgt: "Plasma"
  assay.readout: "Fibrinogen level"
  reported.measurement: 7.41

====

# assay.info: Stability in pH 7.4 phosphate buffer assessed as half life
# Type: physicochemical
Class membership depends on half-life alone; the intervals are c1 = under 20 h, c2 = from 20 h up to 50 h, c3 = 50 h and over

- molecule: "Cc1nc(C)c(COC(=O)COc2ccc(-c3cc(=O)c4c(O)c(O)c(O)cc4o3)cc2)nc1C"
  qualitative.label: "c2"
- molecule: "Cc1nc(C)c(COC(=O)N[C@H](CC(C)C)C(=O)Oc2ccc(-c3cc(=O)c4c(O)c(O)c(O)cc4o3)cc2)nc1C"
  qualitative.label: "c3"
- molecule: "Cc1nc(C)c(COC(=O)N[C@@H](C(=O)Oc2ccc(-c3cc(=O)c4c(O)c(O)c(O)cc4o3)cc2)C(C)C)nc1C"
  qualitative.label: "c2"
- molecule: "Cc1nc(C)c(C(=O)N[C@@H](C(=O)Oc2ccc(-c3cc(=O)c4c(O)c(O)c(O)cc4o3)cc2)C(C)C)nc1C"
  qualitative.label: "c3"
- molecule: "CC[C@H](C)[C@@H](NC(=O)OCc1nc(C)c(C)nc1C)C(=O)Oc1ccc(-c2cc(=O)c3c(O)c(O)c(O)cc3o2)cc1"
  qualitative.label: "c3"
- molecule: "Cc1nc(C)c(C(=O)Oc2ccc(-c3cc(=O)c4c(O)c(O)c(O)cc4o3)cc2)nc1C"
  qualitative.label: "c1"
- molecule: "Cc1nc(C)c(C(=O)N[C@@H](C(=O)N[C@@H](C)C(=O)Oc2ccc(-c3cc(=O)c4c(O)c(O)c(O)cc4o3)cc2)C(C)C)nc1C"
  qualitative.label: "c3"
- molecule: "Cc1nc(C)c(COC(=O)NCC(=O)Oc2ccc(-c3cc(=O)c4c(O)c(O)c(O)cc4o3)cc2)nc1C"
  qualitative.label: "c1"
- molecule: "Cc1nc(C)c(C(=O)N[C@H](CC(C)C)C(=O)Oc2ccc(-c3cc(=O)c4c(O)c(O)c(O)cc4o3)cc2)nc1C"
  qualitative.label: "c3"
- molecule: "O=c1cc(-c2ccc(O)cc2)oc2cc(O)c(O)c(O)c12 [SCUTELLAREIN]"
  qualitative.label: "c1"
- molecule: "Cc1nc(C)c(C(=O)NCC(=O)Oc2ccc(-c3cc(=O)c4c(O)c(O)c(O)cc4o3)cc2)nc1C"
  qualitative.label: "c3"
- molecule: "Cc1nc(C)c(COC(=O)N[C@H](C)C(=O)Oc2ccc(-c3cc(=O)c4c(O)c(O)c(O)cc4o3)cc2)nc1C"
  qualitative.label: "c2"

====

# assay.info: Lipophilicity, logP of compound
# Assay type: physicochemical
# settings: octanol/water

- structure.as.smiles: "O=c1cc(-c2ccc(O)cc2)oc2cc(O)c(O)c(O)c12"
  logP: 0.96
- structure.as.smiles: "Cc1nc(C)c(COC(=O)N[C@@H](C(=O)Oc2ccc(-c3cc(=O)c4c(O)c(O)c(O)cc4o3)cc2)C(C)C)nc1C"
  logP: 1.04
- structure.as.smiles: "Cc1nc(C)c(C(=O)N[C@H](CC(C)C)C(=O)Oc2ccc(-c3cc(=O)c4c(O)c(O)c(O)cc4o3)cc2)nc1C"
  logP: 0.91
- structure.as.smiles: "Cc1nc(C)c(COC(=O)NCC(=O)Oc2ccc(-c3cc(=O)c4c(O)c(O)c(O)cc4o3)cc2)nc1C"
  logP: 2.1
- structure.as.smiles: "Cc1nc(C)c(C)nc1C"
  logP: 1.26
- structure.as.smiles: "Cc1nc(C)c(C(=O)Oc2ccc(-c3cc(=O)c4c(O)c(O)c(O)cc4o3)cc2)nc1C"
  logP: 3.01
- structure.as.smiles: "Cc1nc(C)c(COC(=O)N[C@H](C)C(=O)Oc2ccc(-c3cc(=O)c4c(O)c(O)c(O)cc4o3)cc2)nc1C"
  logP: 1.53

====

# assay.info: Solubility in water
# Type: physicochemical

- structure.as.smiles: "O=c1cc(-c2ccc(O)cc2)oc2cc(O)c(O)c(O)c12"
  solubility [µg/mL]: 14.4
- structure.as.smiles: "Cc1nc(C)c(COC(=O)N[C@H](C)C(=O)Oc2ccc(-c3cc(=O)c4c(O)c(O)c(O)cc4o3)cc2)nc1C"
  solubility [µg/mL]: 799
- structure.as.smiles: "CC[C@H](C)[C@@H](NC(=O)OCc1nc(C)c(C)nc1C)C(=O)Oc1ccc(-c2cc(=O)c3c(O)c(O)c(O)cc3o2)cc1"
  solubility [µg/mL]: 234
- structure.as.smiles: "Cc1nc(C)c(COC(=O)N[C@H](CC(C)C)C(=O)Oc2ccc(-c3cc(=O)c4c(O)c(O)c(O)cc4o3)cc2)nc1C"
  solubility [µg/mL]: 221
- structure.as.smiles: "Cc1nc(C)c(C)nc1C"
  solubility [µg/mL]: 4500
- structure.as.smiles: "Cc1nc(C)c(COC(=O)NCC(=O)Oc2ccc(-c3cc(=O)c4c(O)c(O)c(O)cc4o3)cc2)nc1C"
  solubility [µg/mL]: 454
- structure.as.smiles: "Cc1nc(C)c(COC(=O)CCCOc2ccc(-c3cc(=O)c4c(O)c(O)c(O)cc4o3)cc2)nc1C"
  solubility [µg/mL]: 356
- structure.as.smiles: "Cc1nc(C)c(C(=O)Oc2ccc(-c3cc(=O)c4c(O)c(O)c(O)cc4o3)cc2)nc1C"
  solubility [µg/mL]: 12.1
- structure.as.smiles: "Cc1nc(C)c(C(=O)N[C@@H](C(=O)Oc2ccc(-c3cc(=O)c4c(O)c(O)c(O)cc4o3)cc2)C(C)C)nc1C"
  solubility [µg/mL]: 240
- structure.as.smiles: "Cc1nc(C)c(C(=O)NCC(=O)Oc2ccc(-c3cc(=O)c4c(O)c(O)c(O)cc4o3)cc2)nc1C"
  solubility [µg/mL]: 628
- structure.as.smiles: "Cc1nc(C)c(COC(=O)COc2ccc(-c3cc(=O)c4c(O)c(O)c(O)cc4o3)cc2)nc1C"
  solubility [µg/mL]: 30.6
- structure.as.smiles: "Cc1nc(C)c(C(=O)N[C@@H](C(=O)N[C@@H](C)C(=O)Oc2ccc(-c3cc(=O)c4c(O)c(O)c(O)cc4o3)cc2)C(C)C)nc1C"
  solubility [µg/mL]: 856
- structure.as.smiles: "Cc1nc(C)c(COC(=O)N[C@@H](C(=O)Oc2ccc(-c3cc(=O)c4c(O)c(O)c(O)cc4o3)cc2)C(C)C)nc1C"
  solubility [µg/mL]: 252
- structure.as.smiles: "Cc1nc(C)c(C(=O)N[C@H](CC(C)C)C(=O)Oc2ccc(-c3cc(=O)c4c(O)c(O)c(O)cc4o3)cc2)nc1C"
  solubility [µg/mL]: 26

====

# assay.info: Lipophilicity, logP of compound
# Type: physicochemical
# settings: octanol/water
Could you mark each record rule met if its logP falls strictly under 2, and rule not met if it equals or exceeds it?

- structure.as.smiles: "CC[C@H](C)[C@@H](NC(=O)OCc1nc(C)c(C)nc1C)C(=O)Oc1ccc(-c2cc(=O)c3c(O)c(O)c(O)cc3o2)cc1"
  qualitative.label: "rule not met"
- structure.as.smiles: "Cc1nc(C)c(COC(=O)COc2ccc(-c3cc(=O)c4c(O)c(O)c(O)cc4o3)cc2)nc1C"
  qualitative.label: "rule not met"
- structure.as.smiles: "Cc1nc(C)c(C(=O)N[C@@H](C(=O)Oc2ccc(-c3cc(=O)c4c(O)c(O)c(O)cc4o3)cc2)C(C)C)nc1C"
  qualitative.label: "rule met"
- structure.as.smiles: "Cc1nc(C)c(COC(=O)N[C@H](CC(C)C)C(=O)Oc2ccc(-c3cc(=O)c4c(O)c(O)c(O)cc4o3)cc2)nc1C"
  qualitative.label: "rule met"
- structure.as.smiles: "Cc1nc(C)c(COC(=O)CCCOc2ccc(-c3cc(=O)c4c(O)c(O)c(O)cc4o3)cc2)nc1C"
  qualitative.label: "rule met"
- structure.as.smiles: "Cc1nc(C)c(C(=O)NCC(=O)Oc2ccc(-c3cc(=O)c4c(O)c(O)c(O)cc4o3)cc2)nc1C"
  qualitative.label: "rule not met"
